Attribution: ChEMBL document CHEMBL1121456

# Organism: Rattus norvegicus
# assay_details: Blood AcH level of compound was measured in rats which are untreated with phenobarbital (PB)
# Format: functional
Would you mind labelling by Blood AcH? At or over 20 µM is t, under is f.

Known results for molecules:
C#CC(OC)OC = f
C#CCN(CC#C)CC#C = f
C#CCN(C)Cc1ccccc1 = t
C#CCOC = f

Here is the next item to consider.
Q: Form field: Blood AcH at least 20 µM? Entry: `C#CCNCc1ccccc1`
Ans: t
